Listed below: apparent KD of MS2 coat protein values for each entry.
Tested on: MS2 coat protein
Experimental protocol: apparent KD of MS2 coat protein; designed switch direction (-1 OFF switch, 1 ON switch): -1; higher = weaker reporter binding
Run conditions: input ligand: microRNA oligo, concentration not stated
Assay metric: apparent KD of MS2 coat protein

>>> result("GCAGCGUAUGUAGGAUAUCGGUCAGUUUCUGAUCGAGAAGGACAUGAGGAUCACCCAUGUUAAGUCAUGCGUGAGCAUGGCUGC [JL ENG1 3.72] (Eterna round: R96, puzzle: Exclusion NG 1)")
"23.8 nM"
>>> result("ACAUGUUAUGUAGGAUAUUAGACACAUGAGGAUCACCCAUGUAACCGGAGGCUUUACUAUGAGUUUGAGAAGGGUAUGAACAUG [Ex NG2 #66] (Eterna round: R96, puzzle: Exclusion NG 2)")
"45.4 nM"
>>> result("GCAGCACAUGUAGGAUAUCUGCACGUGUAGUGCAGAGAAGGACAUGAGGAUCACCCAUGUAAUUAAGAUCAAUUAUUAAGCUGC [ENG1/3-C3] (Eterna round: R96, puzzle: Exclusion NG 1)")
"42.4 nM"

###

Each record here notes measured apparent KD of MS2 coat protein.
System: MS2 coat protein
Experimental protocol: apparent KD of MS2 coat protein; higher = weaker reporter binding
Run conditions: Eterna round: R101; input ligand: none
Assay metric: apparent KD of MS2 coat protein (nM)

>>> numeric_readout("CCCGGUGACUAGAAGGCGCCACAUGAGGAUCACCCAUGUAUCAAAGACCGGUGAUUGCCGACGGGCGAGGAUAUAGGUGCGACG [EternaBot1154] (puzzle (switch architecture): Inverted Exclusion NG 2)")
8.19
>>> numeric_readout("UAAAUAGAUCCUAGAGGAUCACCCUAGGAUAUCACCGUCGAGGUGCCAUAAUGGCACCUCGACGGUGAGAAGGAGGAAAAUAAA [#SharedSequence - SLExNG3: 5] (puzzle (switch architecture): Small Loop Exclusion NG 3)")
11.5

###

System: K4 kissing-loop RNA reporter
Experimental protocol: apparent KD of K4 kissing-loop reporter; higher = weaker reporter binding
Run conditions: Eterna round: R107; input ligand: arginine 13.2 mM
Known apparent KD of K4 kissing-loop reporter of a selection of sequences
Assay metric: apparent KD of K4 kissing-loop reporter (nM)

>>> numeric_readout("GCUAUGGUAGGAAGGAGCGCUUGCUCGGUCAUAUGAGUGAUGUUCGAGACCGAGCAUUUAUAGCAGGUAGGUCGCCUACUAUAGC [Arginine B K4 8]")
223
>>> numeric_readout("AGUGUUUGGUUAGAUACCAGCCGUCUGUGGAUAAUCCUCAGACCGCCAGUGAUGUUGGCAGGCCCUUGGCAGCUAACAGGACAGA [Ersoed]")
213
>>> numeric_readout("UUGUAUAGUGGAAGGAGCGCGUGGGCGCAGUGAUGUUGCGCCCGACAUCACUUCAACUUAACGCAGGUAGGUCGCCAUUGUAAUG [Arginine B (Excl) V5]")
88

###

Tested on: K4 kissing-loop RNA reporter;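 note: bound reporter read as fluorescence of individual clusters on recovered sequencing chips by microscopy, with normalized cluster intensities fitted with a binding model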
Experimental protocol: apparent KD of K4 kissing-loop reporter; higher = weaker reporter binding
Run conditions: Eterna round: R107; input ligand: arginine 13.2 mM
Label criterion met for high-side apparent KD of K4 kissing-loop reporter (at or above 0.2 µM) and criterion not met for low-side apparent KD of K4 kissing-loop reporter (below it).

>>> discrete_label("UGGGCCGCCUGAGGAUAUAGAGACGAGUGAUGUUCGUGGAUAAGAGCCAGUGAUGUUGGGUUAUUUCUAGAAGGCGGGCGAACUU [Exclusion FMN B GF9]")
"criterion not met"
>>> discrete_label("UCACUCAUGUGAAGGAGCGUGAGAAGACAUGAGUGAUGUUCAUGUCUAGACCAGCGUCUCUCACAGGUAGGUCGCACAUGAAAGG [Arg B SS t10]")
"criterion not met"
>>> discrete_label("AUUAUAUUGUGAAGGAGCGCGCAUAGUAGUGAUGUUACUAUGACAUAUCUUAUUUAAUUCUCGCAGGUAGGUCGCACAUUAUAUA [JR_Nu_ExcArginiB_Sub026]")
"criterion not met"
>>> discrete_label("AUAGCUGAUAGCAGUGAUGUUGCUUCAGAUACCAGACGAGAUCAUGUCCCUUGGCAGCUGACAUGGCAAGUGCUAGGUUAGAUGA [#11 K4 Theophylline A Exclusion]")
"criterion not met"
>>> discrete_label("GGGAGUAGUGCGGCCGCCACUGUGAAAGUAGAAGAAUAUAGUGAUGUUAUAUAGGAAUAAAAGAAUAGGACCGGGCAUUAGAUUU [SSTRyptB.V]")
"criterion met"
>>> discrete_label("GUCGGCCGCGCGCAAGCGCGGCCGGCCGAUACCAGCGCGCCGGCGCGCCCUUGGCAGCGGCGCCGAGUGAUGUUCGGCCUGACGU [#2 Same State - Theophylline A Attempt #7 (HarryS)]")
"criterion met"
>>> discrete_label("GUAGAUAGGCUACAUCUCUAGUCUAAAGACUAGGAUAUCAGGAAACUGAGAAGGAGUCUCAUUGGAGUGAUGUUCCAAGAAUAAU [KL-SSFMN-A16]")
"criterion not met"
>>> discrete_label("GGCCGCAAGGCGAGCGCUCCCACUCCGGAAGGAGCGCCCGGAAGGGCAGGUAGGUCGCCGGAGUGAUGUUCCGGUGGAGGGCUCG [#2 Exclusion - Arginine A Attempt #18 (Inspired by Omei)]")
"criterion met"
>>> discrete_label("AAAGACUGACUGCAAUUAGCAGUCAGUCAACGAGGACCGGUACGGCCGCCACUCGGGUCCUAGAGUGAUGUUCUAAUAAUAUAAA [AK1.2 SS Tryptophan A]")
"criterion met"
